Test system: HepG2 cells
experiment: CellTox Green Cytotoxicity Assay (flor) in HepG2, HepG2[flor];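 as to hepg2 flor emax 40: percent activity versus DMSO-only wells with baseline rescaled to 0%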
Format: cell-based, human
assay_setup: HepG2 flor, time point 40
result_type: hepg2_flor_emax_40

Would you mind telling me what hepg2_flor_emax_40 value was observed for CC(C)=CCC/C(C)=C/CO [Geraniol] ?
0

Try CN(C)c1ccc(C(=C2C=CC(=[N+](C)C)C=C2)c2ccccc2)cc1.CN(C)c1ccc(C(=C2C=CC(=[N+](C)C)C=C2)c2ccccc2)cc1.O=C(O)C(=O)O.O=C([O-])C(=O)O.O=C([O-])C(=O)O [Malachite green oxalate] next.
275.23

Continue with O=S1(=O)OC(c2ccc(O)cc2)(c2ccc(O)cc2)c2ccccc21 [Phenol red]
0

Record: Cc1cc(N)c2cc(NC(=O)Nc3ccc4nc(C)cc(N)c4c3)ccc2n1.Cl.Cl [Aminoquinuride dihydrochloride]
0

O=C(O)c1ccccc1O.Oc1cccc2cccnc12 [8-Quinolinol Salicylic acid (1:1)] , same question.
0

---

Tested on: HepG2 cells
assay_setup: HepG2 glo
Would you mind telling me the reported hepg2_glo_auc of each entry?
Give your answer as a number; write no unit.

# lookup: hepg2_glo_auc of CN(C)c1ccc(C(=C2C=CC(=[N+](C)C)C=C2)c2ccccc2)cc1.CN(C)c1ccc(C(=C2C=CC(=[N+](C)C)C=C2)c2ccccc2)cc1.O=C(O)C(=O)O.O=C([O-])C(=O)O.O=C([O-])C(=O)O [Malachite green oxalate]
1.838

# iterate: `O=C(O)c1ccccc1O.Oc1cccc2cccnc12`
0

Also `O=S1(=O)OC(c2ccc(O)cc2)(c2ccc(O)cc2)c2ccccc21` ?
0.5829

Next: Cc1cc(N)c2cc(NC(=O)Nc3ccc4nc(C)cc(N)c4c3)ccc2n1.Cl.Cl [Aminoquinuride dihydrochloride]
0

`CC(C)=CCC/C(C)=C/CO` ?
0

---

Tested on: HepG2 cells
experiment: CellTox Green Cytotoxicity Assay (flor) in HepG2, HepG2[flor]
Assay type: cell-based, human
assay_setup: HepG2 flor, time point 16
result_type: hepg2_flor_wauc_16

What measured hepg2_flor_wauc_16 goes with `CC(C)=CCC/C(C)=C/CO` ?
0

Next entry: `O=S1(=O)OC(c2ccc(O)cc2)(c2ccc(O)cc2)c2ccccc21`
0

Another molecule: CN(C)c1ccc(C(=C2C=CC(=[N+](C)C)C=C2)c2ccccc2)cc1.CN(C)c1ccc(C(=C2C=CC(=[N+](C)C)C=C2)c2ccccc2)cc1.O=C(O)C(=O)O.O=C([O-])C(=O)O.O=C([O-])C(=O)O [Malachite green oxalate]
1.871

Follow-up item: Cc1cc(N)c2cc(NC(=O)Nc3ccc4nc(C)cc(N)c4c3)ccc2n1.Cl.Cl [Aminoquinuride dihydrochloride]
0

Field entry: `O=C(O)c1ccccc1O.Oc1cccc2cccnc12`
0

---

So I've got a bunch of molecules here, and I need their hek293_glo_emax_8 values.
Tested on: HEK293 cells
assay_setup: HEK293 glo, time point 8
Number only, please.

Fill in: hek293_glo_emax_8 of CC(C)=CCC/C(C)=C/CO [Geraniol] is ___
0

Thanks! And O=S1(=O)OC(c2ccc(O)cc2)(c2ccc(O)cc2)c2ccccc21 [Phenol red] ?
-27.7816

Proceed to Cc1cc(N)c2cc(NC(=O)Nc3ccc4nc(C)cc(N)c4c3)ccc2n1.Cl.Cl [Aminoquinuride dihydrochloride]
0

Cool, now CN(C)c1ccc(C(=C2C=CC(=[N+](C)C)C=C2)c2ccccc2)cc1.CN(C)c1ccc(C(=C2C=CC(=[N+](C)C)C=C2)c2ccccc2)cc1.O=C(O)C(=O)O.O=C([O-])C(=O)O.O=C([O-])C(=O)O [Malachite green oxalate]
-47.964

Now consider O=C(O)c1ccccc1O.Oc1cccc2cccnc12 [8-Quinolinol Salicylic acid (1:1)] and answer again.
0

Measured values drawn from paper PMC5439695 for this set.
